test: Kidney function, BUN, urine protein to creatinine ratio in cynomolgus monkeys (Example 46); assay type: in vivo; details: Day −5 (before start of treatment)
Strand notation (5' to 3'): a small letter for the sugar, then the base; units joined by * are phosphorothioate-linked, units joined directly phosphodiester-linked; [ ] holds rarer units or linkages, { } end groups; capitals alone tell only the bases. e = 2'-O-(2-methoxyethyl) (MOE); [5mC] = 5-methylcytosine; d = 2'-deoxy (DNA)
Observed Property: BUN levels (mg/dL)
The reply should contain only the number, in mg/dL.

Example results:
ISIS 416858: MOE gapmer, nucleobases 1275 to 1318 of SEQ ID NO: 1 (Table 8) (antisense ACGGCATTGGTGCACAGTTT; MOE gapmer, wing and gap sizes not given here) | 24
ISIS 449709: 3-8-3, 4-8-4, 2-10-2, 3-10-3 or 4-10-4 MOE microwalk gapmer (Table 46) (antisense eG*e[5mC]*eA*e[5mC]*dA*dG*dT*dT*dT*d[5mC]*dT*dG*dG*d[5mC]*eA*eG*eG*e[5mC]) | 21
ISIS 416850: MOE gapmer, nucleobases 1275 to 1318 of SEQ ID NO: 1 (Table 8) (antisense TGCACAGTTTCTGGCAGGCC; MOE gapmer, wing and gap sizes not given here) | 23
ISIS 449708: 3-8-3, 4-8-4, 2-10-2, 3-10-3 or 4-10-4 MOE microwalk gapmer (Table 46) (antisense eA*e[5mC]*eA*dG*dT*dT*dT*d[5mC]*dT*dG*dG*e[5mC]*eA*eG) | 23

Consider the additional substance presented here.
get_value(item= ISIS 445522: 5-8-5 or 6-8-6 MOE microwalk gapmer (Table 44) (antisense eG*e[5mC]*eA*e[5mC]*eA*dG*dT*dT*dT*d[5mC]*dT*dG*dG*e[5mC]*eA*eG*eG*e[5mC]) , readout=BUN levels) returns 22

---

assay: Tolerability in CD1 mice: organ weight (Example 33); assay type: in vivo; conditions: 50 mg/kg s.c. twice a week, 6 weeks, vs PBS control, normalized to body weight
Observed Property: Percent change in kidney weight

416826 (antisense ATGCCCTTCATGTCTAGGTC; 5-10-5 gapmer, further chemistry not given here) [compound 416826] | −22%
417003 (antisense TGGTGCACAGTTTCTGGCAG; 2-13-5 gapmer chemistry, further chemistry not given here) [compound 417003] | −1%
416850 (antisense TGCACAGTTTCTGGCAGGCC; 5-10-5 gapmer, further chemistry not given here) [compound 416850] | −11%
416925 (antisense GGTGCACAGTTTCTGGCAGG; 3-14-3 gapmer chemistry, further chemistry not given here) [compound 416925] | −2%
416838 (antisense GCAACCGGGATGATGAGTGC; 5-10-5 gapmer, further chemistry not given here) [compound 416838] | −8%

get_value(item= 417002 (antisense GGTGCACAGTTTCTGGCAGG; 2-13-5 gapmer chemistry, further chemistry not given here) [compound 417002] , readout=Percent change in kidney weight) returns −2%

get_value(item= 416864 (antisense GGCAGCGGACGGCATTGGTG; 5-10-5 gapmer, further chemistry not given here) [compound 416864] , readout=Percent change in kidney weight) returns −15%

get_value(item= 416892 (antisense GCCCTTCATGTCTAGGTCCA; 3-14-3 chimeric gapmer, further chemistry not given here) [compound 416892] , readout=Percent change in kidney weight) returns +19%

get_value(item= 416825 (antisense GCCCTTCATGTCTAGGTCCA; 5-10-5 gapmer, further chemistry not given here) [compound 416825] , readout=Percent change in kidney weight) returns −11%

get_value(item= 416858 (antisense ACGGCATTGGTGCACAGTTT; 5-10-5 gapmer, further chemistry not given here) [compound 416858] , readout=Percent change in kidney weight) returns −10%

get_value(item= 416999 (antisense GCACAGTTTCTGGCAGGCCT; 2-13-5 gapmer chemistry, further chemistry not given here) [compound 416999] , readout=Percent change in kidney weight) returns −7%
